Molecular target: fibroblast activation protein (FAP; rhFAP, SLIN-tagged hFAP) (Homo sapiens, UniProt Q12884)
Sequence (Q12884 35-760): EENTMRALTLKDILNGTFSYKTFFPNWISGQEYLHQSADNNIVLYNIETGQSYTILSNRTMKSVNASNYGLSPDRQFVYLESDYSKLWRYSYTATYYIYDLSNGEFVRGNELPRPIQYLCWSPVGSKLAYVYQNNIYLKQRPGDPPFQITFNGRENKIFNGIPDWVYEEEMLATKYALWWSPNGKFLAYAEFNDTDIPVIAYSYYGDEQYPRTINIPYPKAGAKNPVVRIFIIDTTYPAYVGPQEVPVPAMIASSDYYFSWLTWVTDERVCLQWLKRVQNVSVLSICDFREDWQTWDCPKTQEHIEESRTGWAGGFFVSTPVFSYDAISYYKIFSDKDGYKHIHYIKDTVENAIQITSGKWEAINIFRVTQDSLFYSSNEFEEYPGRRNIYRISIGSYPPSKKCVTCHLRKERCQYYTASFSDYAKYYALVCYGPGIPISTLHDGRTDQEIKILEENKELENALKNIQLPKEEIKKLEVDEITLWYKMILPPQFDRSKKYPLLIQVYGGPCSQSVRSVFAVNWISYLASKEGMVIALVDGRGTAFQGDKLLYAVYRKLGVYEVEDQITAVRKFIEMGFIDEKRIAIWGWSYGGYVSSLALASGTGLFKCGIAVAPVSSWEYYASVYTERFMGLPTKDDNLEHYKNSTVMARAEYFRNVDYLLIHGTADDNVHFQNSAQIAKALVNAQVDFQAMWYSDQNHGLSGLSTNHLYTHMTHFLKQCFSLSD
Conditions: 2 µM; inhibitor
endpoint.label: Relative inhibition (%), activity assay
// return numeric value only (unit: %, not printed)

# molecule, display.unit, Relative inhibition (%), activity assay
rows = [
    ("COc1ccc(-c2cc(=O)c3c(O)c(OC)c(O)cc3o2)cc1OC", "%", 16),
]

Now, please, on to the next molecule.
Relative inhibition (%), activity assay measured on CC(=C(CCOC(=O)C(C)C)SSC(CCOC(=O)C(C)C)=C(C)N(C=O)Cc1cnc(C)nc1N)N(C=O)Cc1cnc(C)nc1N (stereo in doubt) = 15

###

Target: fibroblast activation protein (FAP; rhFAP, SLIN-tagged hFAP) (Homo sapiens, UniProt Q12884)
Details: 2 µM; inhibitor
Counter-ions that a name gives are not always drawn.
endpoint.label: Relative inhibition (%), activity assay
// return numeric value only (unit: %, not printed)

Consider the following illustrative entries.
# compound, endpoint.label, val
rows = [
    ("COc1cc2/c(=N/c3ccc(Br)cc3F)nc[nH]c2cc1OCC1CCN(C)CC1", "Relative inhibition (%), activity assay", 29),
    ("CCC1=C(C)CN(C(=O)NCCc2ccc(S(=O)(=O)NC(=O)N[C@H]3CC[C@H](C)CC3)cc2)C1=O [Glimepiride]", "Relative inhibition (%), activity assay", 16),
    ("CCOc1ccc(Nc2ccc(/C(=C3/C=CC(=[N+](CC)Cc4cccc(S(=O)(=O)[O-])c4)C=C3C)c3ccc(N(CC)Cc4cccc(S(=O)(=O)O)c4)cc3C)cc2)cc1", "Relative inhibition (%), activity assay", 28),
]

Relative inhibition (%), activity assay measured on CCN(c1cc(-c2ccc(CN3CCOCC3)cc2)cc(C(=O)NCc2c(C)cc(C)[nH]c2=O)c1C)C1CCOCC1 [Tazemetostat (hydrobromide)] = 22

Relative inhibition (%), activity assay measured on CCOC(=O)n1ccn(C)c1=S = 26

Relative inhibition (%), activity assay measured on CC/C=C\C/C=C\C/C=C\C/C=C\C/C=C\C/C=C\CCC(=O)O = 10
